- Tested on: Escherichia coli TOP10
- TEST_SUMMARY: shrunken log2 fold change of peptide-encoding DNA abundance (4.5 h post-induction vs induction); higher = less antimicrobial activity (less host growth inhibition)
- SETTINGS: time post-induction: 4.5 h; library: site-saturation at positions 5, 18, 19, 20
READOUT_KIND: shrunken log2 fold change
Please respond with just the number, no unit label.

Examples with answers:
# SEQUENCE_CODE, EXPERIMENTAL_VALUE
records = [
    ("RRIRCRPPRLPRPRPRPALTPRP", 0.224),
    ("RRIRTRPPRLPRPRPRPMQYPRP", -0.0442),
    ("RRIRHRPPRLPRPRPRPNKGPRP", -0.174),
    ("RRIRIRPPRLPRPRPRPTPCPRP", 0.598),
    ("RRIRPRPPRLPRPRPRPQKDPRP", -0.132),
]

q: Find the recorded shrunken log2 fold change belonging to RRIRVRPPRLPRPRPRPEHNPRP and report it.
a: -0.244

q: Item under review: RRIRCRPPRLPRPRPRPMAMPRP . Reported shrunken log2 fold change?
a: 0.106

q: Which shrunken log2 fold change reading was recorded for the sequence RRIRNRPPRLPRPRPRPHNYPRP ?
a: -0.968

q: Tell me the measured shrunken log2 fold change of RRIRTRPPRLPRPRPRPNLAPRP , please.
a: 0.0471

q: So what's the measured shrunken log2 fold change for this one? RRIRFRPPRLPRPRPRPCGDPRP
a: -0.01

q: Look up shrunken log2 fold change for this sequence: RRIRKRPPRLPRPRPRPSVKPRP
a: -0.358

q: shrunken log2 fold change lookup needed for RRIRQRPPRLPRPRPRPLGCPRP , thanks.
a: -0.0282

q: So what's the measured shrunken log2 fold change for this one? RRIRWRPPRLPRPRPRPSQKPRP
a: -0.0621

q: What does the record list as shrunken log2 fold change for RRIRERPPRLPRPRPRPFTCPRP ?
a: -0.00783

q: Would you mind telling me what shrunken log2 fold change value was observed for RRIRSRPPRLPRPRPRPKQDPRP ?
a: 0.0172

----------
Each entry below carries its recorded shrunken log2 fold change.
- System: Escherichia coli TOP10
- TEST_SUMMARY: shrunken log2 fold change of peptide-encoding DNA abundance (4.5 h post-induction vs induction); higher = less antimicrobial activity (less host growth inhibition)
- SETTINGS: time post-induction: 4.5 h; library: site-saturation at positions 5, 18, 19, 20
Number only, no unit.

# SEQUENCE_CODE, shrunken log2 fold change
records = [
    ("RRIRWRPPRLPRPRPRPEIWPRP", 1),
    ("RRIRSRPPRLPRPRPRPSFQPRP", -0.282),
    ("RRIRRRPPRLPRPRPRPRPSPRP", 0.781),
    ("RRIRRRPPRLPRPRPRPLLQPRP", 0.512),
    ("RRIRMRPPRLPRPRPRPNILPRP", 0.057),
]

q: For Escherichia coli TOP10, provide shrunken log2 fold change of RRIRNRPPRLPRPRPRPITIPRP please.
a: -0.366

q: Hi! What's the reported shrunken log2 fold change for RRIRNRPPRLPRPRPRPIHQPRP on Escherichia coli TOP10?
a: -0.189

----------
- Test system: Escherichia coli TOP10
- TEST_SUMMARY: shrunken log2 fold change of peptide-encoding DNA abundance (4.5 h post-induction vs induction); higher = less antimicrobial activity (less host growth inhibition)
- SETTINGS: time post-induction: 4.5 h; library: site-saturation at positions 5, 18, 19, 20
READOUT_KIND: shrunken log2 fold change

# SEQUENCE_CODE, EXPERIMENTAL_VALUE
records = [
    ("RRIRNRPPRLPRPRPRPFQIPRP", -0.121),
    ("RRIRVRPPRLPRPRPRPVPWPRP", 0.0916),
    ("RRIRKRPPRLPRPRPRPVIMPRP", 0.137),
    ("RRIRPRPPRLPRPRPRPKLFPRP", 0.18),
    ("RRIRCRPPRLPRPRPRPSCDPRP", -0.0533),
]

q: Provide value of shrunken log2 fold change for this record tested with Escherichia coli TOP10: RRIRKRPPRLPRPRPRPCRAPRP
a: 0.57

q: Request: shrunken log2 fold change, test system Escherichia coli TOP10, entry RRIRPRPPRLPRPRPRPAYYPRP
a: -0.0697

q: Param readout = shrunken log2 fold change; param system = Escherichia coli TOP10; param query = RRIRMRPPRLPRPRPRPHHYPRP ; response: value
a: -0.51

q: Hi! What's the reported shrunken log2 fold change for RRIRLRPPRLPRPRPRPLWHPRP on Escherichia coli TOP10?
a: 0.0621

q: Request body: readout shrunken log2 fold change, system Escherichia coli TOP10, query RRIRARPPRLPRPRPRPCCCPRP . Return the value.
a: 0.689

q: // fetch Escherichia coli TOP10 shrunken log2 fold change for RRIRLRPPRLPRPRPRPRMCPRP
a: -0.0246

q: Which measured shrunken log2 fold change belongs to RRIRTRPPRLPRPRPRPPFYPRP , tested on Escherichia coli TOP10?
a: -0.0308

q: Form field - read-out: shrunken log2 fold change; system: Escherichia coli TOP10; submitted item: RRIRTRPPRLPRPRPRPIMSPRP
a: -0.152

q: Item RRIRARPPRLPRPRPRPWYTPRP with Escherichia coli TOP10 - shrunken log2 fold change?
a: -0.514

q: Requested read-out shrunken log2 fold change, target or system Escherichia coli TOP10, entry RRIRGRPPRLPRPRPRPIMHPRP;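 also: peptides expressed intracellularly from a pBAD plasmid library in pooled LB shake-flask culture, induced with 0.3% L-arabinose, DNA abundance read by NGS, three biological replicates, DESeq2 with apeglm shrinkage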
a: 0.341
